System: CD70 promoter
EXPERIMENTAL_PROTOCOL: Bisulfite sequencing of the CD70 promoter in CD4+ T cells
Assay type: cell-based, human
REPORTED_CONDITIONS: anti-CD3 and anti-CD28 stimulated CD4+ T cells vs stimulated untreated controls
REPORTED_PROPERTY: methylation of the 10 CG pairs between −515 and −423 of the CD70 promoter

{"COMPOUND": "N#CC(=C(/N)Sc1ccccc1N)/C(C#N)=C(\\N)Sc1ccccc1N", "ASSAY_TARGET": "CD70 promoter", "RESULT": "appears to demethylate"}
{"COMPOUND": "CCN(CC)CCNC(=O)c1ccc(N)cc1 [procainamide]", "ASSAY_TARGET": "CD70 promoter", "RESULT": "appears to demethylate"}
{"COMPOUND": "COc1cccc(-c2cc(=O)c3ccccc3o2)c1N", "ASSAY_TARGET": "CD70 promoter", "RESULT": "appears to demethylate"}

Source listed as patent US20110256121A1.
